# System: A431 cells (EGFR wild type)
# ASSAY_METHOD_TEXT: CellTiter-Glo viability assay, A431
# RUN_PARAMETERS: Homo sapiens, A-431, 96 h, read-out: EGFR CTG EC50 A431, A431, 96 hours, CellTiter-Glo
REPORTED_PROPERTY: log10 EC50 (log10 of the value in nM)
Short version: log10 scale, EC50, nM.

# per-item lookup of log10 EC50; items listed below
1. C=CC(=O)Nc1cccc(-c2c(-c3ccc(N4CCN(C)CC4)cc3)[nH]c3ncnc(OCC(C)C)c23)c1 [Compound 19h]
2. C=CC(=O)Nc1cccc(-c2c(-c3ccc(N4CCN(C)CC4)cc3)[nH]c3ncn(C(C)C)c(=O)c23)c1 [Compound 29g]
3. CCN1CCN(Cc2ccc(-c3cc4c(N[C@H](C)c5ccccc5)ncnc4[nH]3)cc2)CC1 [AEE788, reference compound]

1: 3.23; 2: 3.15; 3: 3.25

# return log10 EC50 for each item in the list
1. C=CC(=O)Nc1cccc(-c2c(-c3ccc(C)cc3)[nH]c3ncnc(OC)c23)c1 [Compound 10a]
2. C=CC(=O)Nc1cccc(-c2c(-c3ccc(CN4CCN(C)CC4)cc3)[nH]c3ncnc(OC)c23)c1 [Compound 17a]
3. C=CC(=O)Nc1cccc(-c2c(-c3ccc(N4CCN(C)CC4)cc3)[nH]c3ncn(CCCC)c(=O)c23)c1 [Compound 29d]

3.99
2.85
2.88
